- PROTOCOL SUMMARY: inhibition of 3D7 malaria parasite growth – strain 3D7 (AID 2306);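 also: 0% = DMSO wells and 100% = chloroquine plus artemisinin control wells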
- TEST CONDITIONS: P. falciparum 3D7 erythrocytic growth, LDH absorbance, 72 h; at 2 µM; active compounds read high
Property: growth inhibition; scope: individual molecules
# number only, unit % dropped from output

Use these answered entries as a reference point.
Cc1cccc2[nH]c(-c3ccc(-c4ccc(CN5CCCCC5)cc4)cc3)nc12 :: 100
Cc1c(CNCCCNc2cc(=O)c3ccccc3[nH]2)sc(C(F)=C(F)F)c1Br :: 94
O=C(Nc1ccc(C(F)(F)F)cc1)c1cccc(S(=O)(=O)NCC2CCCN(CC3CCCCC3)C2)c1 (stereo unspecified) :: 97
CS(=O)(=O)NCCCNCc1cccc(-c2cccc(-c3nc4ccc(C(F)(F)F)cc4[nH]3)c2)c1 :: 99
Cc1cc(-c2cccc3c(C(=O)N4CCc5cc6nccc(N7CCCN(C)CC7)c6cc54)cccc23)cc(C)n1 :: 100

Record summary for CCCCCN1CCCC1CNS(=O)(=O)c1cccc(C(=O)Nc2cccc(C(F)(F)F)c2)c1 (stereo unspecified) : reported growth inhibition = 96

----------
- PROTOCOL SUMMARY: HepG2 cytotoxicity, primary screen, cytotoxicity control for P. falciparum antimalarial project, cell-based, ATP luminescence (AID 2303);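 also: 0% = DMSO wells and 100% = digitonin-killed cells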
- TEST CONDITIONS: HepG2 viability, 24-48 h, at 10 µM
Activity calls are given as the source filed them.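 The calls were made as follows: active = inhibition above 50%; inactive = the rest.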
# valid calls are active, inactive; nothing else

As a guide, the following entries are already answered.
COCCN(C(=O)Cc1cccs1)C(C(=O)NCc1ccc(OC)cc1)c1ccc(C(C)C)cc1 (centres undefined) :: inactive
CC(C)(C)c1ccc(CNC(=O)COc2ccc(-c3nnc(-c4cccc([N+](=O)[O-])c4)o3)cc2[N+](=O)[O-])cc1 :: inactive
NC(=O)c1cccc(Nc2nccc(Nc3ccc(Oc4c(Cl)cccc4Cl)c(Cl)c3)n2)c1 :: inactive

Please examine the following record next.
[ask] Please share the test call associated with Oc1ccc(CCCNc2nc(NCc3cccc4ccccc34)nc(N3CCCNCC3)n2)cc1 .
[reply] active

----------
- PROTOCOL SUMMARY: inhibition of 3D7 malaria parasite growth – strain 3D7 (AID 2306);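 also: 0% = DMSO wells and 100% = chloroquine plus artemisinin control wells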
- TEST CONDITIONS: P. falciparum 3D7 erythrocytic growth, LDH absorbance, 72 h; at 2 µM; active compounds read high
Active and inactive are the calls of the source. The rule behind the calls is not given here.
Property: growth inhibition; scope: individual molecules

Use these answered entries as a reference point.
N#Cc1ccccc1C1CCN(C2CCC(Nc3cc(-c4cccnc4)ccn3)CC2)CC1 (configuration not stated) :: 100% (active)
COc1ccc(CNCc2ccsc2)cc1-c1ccc(S(=O)(=O)NCCN2CCCC2)s1 :: 101% (active)
CN(c1ccc2c(c1)nc(Nc1cc(C(C)(C)C)on1)n2C)c1ccnc(Nc2ccc(CS(C)(=O)=O)cc2)n1 :: 89% (active)
CCN(CC)CCN(Cc1ccc(-c2ccc(C(F)(F)F)cc2)cc1)C(=O)Cn1c(CCc2ccc(F)c(C#N)c2)nc(=O)c2ccccc21 :: 98% (active)
Cc1cccc2[nH]c(-c3ccc(-c4ccc(NC(=O)Nc5ccc(Cl)c(Cl)c5)cc4)cc3)nc12 :: 101% (active)
COc1ccc(-c2cccc(NC(=O)c3ccc(Cl)cc3)c2)cc1CN(C)CCN(C)C :: 99% (active)
COc1ccc(-c2cccc(NC(=O)c3cccc(C#N)c3)c2)cc1CN(C)CCN(C)C :: 99% (active)
COc1ccccc1-n1ccnc1SCC(=O)Nc1cccc(C(F)(F)F)c1 :: 95% (active)

Record summary for O=C(Nc1ccc2c(c1)CCN2C1CCN(Cc2ccc(C(F)(F)F)cc2F)C1)c1ccco1 (configuration not stated) : reported growth inhibition = 91% (active)

Record summary for CS(=O)(=O)N(c1ccc(F)cc1)c1cc(C(=O)N[C@@H](Cc2ccccc2)[C@H](O)CNCc2cccc(C(F)(F)F)c2)cc(N2CCCC2=O)c1 : reported growth inhibition = 91% (active)

Record summary for CC(C)CNCc1ccc(-c2cccc(CN(CCN(C)C)C(=O)CCC3CCCC3)c2)cc1 : reported growth inhibition = 100% (active)

Record summary for O=C(CC1SC(N2N=C(c3cccs3)CC2c2ccccc2)=NC1=O)Nc1ccccc1F (configuration not stated) : reported growth inhibition = 87% (active)

----------
- PROTOCOL SUMMARY: inhibition of 3D7 malaria parasite growth – strain 3D7 (AID 2306);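 also: 0% = DMSO wells and 100% = chloroquine plus artemisinin control wells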
- TEST CONDITIONS: P. falciparum 3D7 erythrocytic growth, LDH absorbance, 72 h; at 2 µM; active compounds read high
The source made the active and inactive calls. The rule behind the calls is not given here.
PROPERTY LABEL: growth inhibition

Use these answered entries as a reference point.
COc1c(C2CCN(CCCCNC(=O)c3ccc(-c4ccc(NC(=O)C(F)(F)F)cc4)cc3)CC2)ccc2c1CCCC2 :: 86% (active)
COCC(C)n1c(C)cc(C(=O)CSc2nnc(Nc3ccccc3)s2)c1C (stereo not drawn) :: 97% (active)

Record summary for CC(=NN=C(N)N)c1ccc2c(ccc3ccccc32)c1 : reported growth inhibition = 100% (active)

----------
Property: growth inhibition; scope: individual molecules
- PROTOCOL SUMMARY: inhibition of 3D7 malaria parasite growth – strain 3D7 (AID 2306);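 also: 0% = DMSO wells and 100% = chloroquine plus artemisinin control wells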
- TEST CONDITIONS: P. falciparum 3D7 erythrocytic growth, LDH absorbance, 72 h; at 2 µM; active compounds read high
# number only, unit % dropped from output

Use these answered entries as a reference point.
COc1ccc2ncn(-c3ccc(C(N)=O)c(OCc4ccccc4C(F)(F)F)c3)c2c1 :: 98
COc1ccccc1CN1CCC(NC(=O)c2ccc(-c3cccc(C(F)(F)F)c3)s2)CC1 :: 85
COc1ccc2nccc([C@@H](O)CN3CCC(NCc4nc5c([N+](=O)[O-])cccc5[nH]4)CC3)c2c1 :: 101
Cc1cc(C2NC(=O)c3ccccc3N2)c(C)n1-c1ccc2c(c1)OCO2 (stereo not drawn) :: 86
O=C(Nc1ccc2c(c1)CN(Cc1ccc(N3CCCC3)o1)CCC2)c1ccoc1 :: 89
CC(C)NCc1cccc(-c2ccc(-c3nc4ccccc4[nH]3)cc2)c1 :: 101
COc1cccc(C(=O)Nc2nc3c(s2)CCN(Cc2ccccc2N2CCNCC2)CC3)c1 :: 89
O=C(NCC1CCN(Cc2ccc3c(c2)OCCO3)C1)c1cc(-c2cccc(C(F)(F)F)c2)cs1 (stereo not drawn) :: 101

Record summary for CC(=O)c1sc2ccccc2c1O : reported growth inhibition = 91

Record summary for O=C(Nc1ccc2c(c1)CCN(C1CCC1)CC2)c1ccc(-c2cn3ccccc3n2)cc1 : reported growth inhibition = 102

Record summary for COc1ccc(CN2CCC(CNCC(c3ccccc3)c3ccccc3)CC2)cc1 : reported growth inhibition = 102

Record summary for CCC(CSC1CCCCC1)N(C)CCN(C)C(CC)CSC1CCCCC1 (stereo not drawn) : reported growth inhibition = 98

Record summary for CC(C)CCN=C(N)Nc1ccc(OCCCOc2ccc(NC(N)=NCCC(C)C)cc2)cc1 : reported growth inhibition = 100

Record summary for CC(C)NCc1cccc(-c2cccc(NC(=O)c3cccc(Cl)c3)c2)c1 : reported growth inhibition = 98

Record summary for Cc1cc(OCCCn2ccnc2)ccc1-c1csc(NC(N)=NCc2ccccc2)n1 : reported growth inhibition = 92

Record summary for COc1ccc(NC(=O)[C@H](CC(C)C)Nc2ccnc(NCCc3ccc(F)cc3)n2)cc1 : reported growth inhibition = 86

Record summary for O=C1C(c2ccccc2)=C(Nc2ccc([N+](=O)[O-])cc2)c2ccccc21 : reported growth inhibition = 95

Record summary for Cn1cccc1C(=O)C(=O)Nc1cccc(-c2ccc(-c3nc4ccc(C(F)(F)F)cc4[nH]3)cc2)c1 : reported growth inhibition = 94

Record summary for Oc1ccc(-c2nc3c(N4CCN(Cc5ccccc5)CC4)cccc3n2C2CCNCC2)cc1 : reported growth inhibition = 85

Record summary for COc1ccc(C=NNc2nc3ccccc3[nH]2)cc1O : reported growth inhibition = 95

Record summary for Cc1ccc(CN2CCCN(Cc3ccc(C(=O)Nc4ccc(Cl)cc4)cc3)CC2)s1 : reported growth inhibition = 85

Record summary for O=C(NCc1cccc2ccccc12)C(c1cc2ccccc2o1)N1CCN(C(c2ccccc2)c2ccccc2)CC1 (stereo not drawn) : reported growth inhibition = 99

Record summary for O=C(Nc1ccc(Cn2nc(Cl)c(N3CCCNCC3)cc2=O)cc1)Nc1ccc(-c2ccccc2)cc1 : reported growth inhibition = 87

----------
- PROTOCOL SUMMARY: HepG2 cytotoxicity, primary screen, cytotoxicity control for P. falciparum antimalarial project, cell-based, ATP luminescence (AID 2303);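 also: 0% = DMSO wells and 100% = digitonin-killed cells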
- TEST CONDITIONS: HepG2 viability, 24-48 h, at 10 µM
Activity calls are given as the source filed them.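 The calls were made as follows: active = inhibition above 50%; inactive = the rest.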
# valid calls are true (1) = active, false (0) = inactive; nothing else

[ask] Please share the test call associated with CN1CCN(c2ccc(-c3cccc(NC(=O)c4cccc(Cl)c4)c3)nn2)CC1 .
[reply] false (0)

[ask] Please share the test call associated with CC(=O)c1c(Cc2cccc(C(F)(F)F)c2)c[nH]c1C .
[reply] false (0)

[ask] Please share the test call associated with Cn1c(NC(=O)C2CCC(CNC(=O)c3ccc(O)c(-c4ccc(Cl)c(Cl)c4)c3)CC2)nc2ccccc21 (configuration not stated) .
[reply] false (0)

[ask] Please share the test call associated with CN(C)c1ccc(-c2csc(C(=O)NCC3CCN(Cc4cccc(C(F)(F)F)c4)C3)c2)cc1 (configuration not stated) .
[reply] false (0)

[ask] Please share the test call associated with CC(C)c1ccc(-c2noc(SCC(=O)N3CCCCC3C)n2)cc1 (configuration not stated) .
[reply] false (0)
